B1: CPEB3 Ribozyme (parent)
chain: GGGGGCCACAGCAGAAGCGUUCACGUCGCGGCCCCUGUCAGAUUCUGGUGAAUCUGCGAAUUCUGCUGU

# Variants of: B1
# assay protocol: self-cleavage, relative activity (ratio to wild type); higher = more cleavage; co-transcriptional
Kind request: treat 0.3 as inclusive, so self-cleavage at 0.3 or higher is Yes, anything lower is No.

| sequence change | label value |
| --- | --- |
| G47C A51G | Yes |
| C33G | Yes |
| C34A C45A | Yes |
| U55C C57G | Yes |
| A23U A42G | Yes |
| G65C U69G | Yes |
| G2U U36G | No |
| C9G G11C | Yes |
| G3C C39A | No |
| C34A A42G | Yes |
| G5U U49G | No |
| C24U G25U | No |
| G11C A15G | Yes |
| U49A G58A | Yes |
| G3A U36C | Yes |
| G11U G14A | No |
| C24U A51G | Yes |
| C12U G58C | Yes |
| C33A U46G | Yes |
| G28C C45U | No |
| G17A A51U | Yes |
| G28C C45A | No |
| A13U U26C | Yes |
| G25C U44G | No |
| A10C U36G | No |
| U44A G58U | Yes |
| G3A U49C | Yes |
| C7A G47U | Yes |
| G2U C35G | No |
| C6A U62A | No |
| U21G G47A | Yes |
| C22G C57U | No |
| A16U G41A | Yes |
| U20C C57U | No |
| U49G U53C | Yes |
| C29U U46G | Yes |
| C39G G65U | Yes |
| A13U U55C | Yes |
| A13G U46C | Yes |
| U43A U53A | Yes |
| A15C G65C | No |
| A59U C66G | Yes |
| C33A U38C | Yes |
| U43G U53C | Yes |
| G28A G48A | No |
| U20C G68U | No |
| U44G U61A | Yes |
| U20A C54A | No |
| U26C U53G | Yes |
| G1U U36A | No |
| A51C C63G | Yes |
| A16U U62A | Yes |
| G14A | Yes |
| C54G G56U | Yes |
| G4A G48U | Yes |
| C34A G58C | Yes |
| C27A G30U | No |
| U44A C45A | Yes |
| U36A C54G | No |
| C6G G48A | Yes |
| C32G A60U | No |
| C45U U64C | Yes |
| C24U A51U | Yes |
| G5C U49C | No |
| C7G U38G | No |
| G2C G50A | No |
| G19U C63U | Yes |
| A23U G37C | No |
| U38A C45U | Yes |
| U20C G30A | No |
| A10C U43A | Yes |
| G41A A52C | Yes |
